# assayExplanation: Log P by HPLC on reversed phase columns (EEC directive 79/831 Annex V.A8; methods [a], [b], [c])
# Assay type: physicochemical
# Description: Measurement of Log P values was performed according to EEC directive 79/831 Annex V.A8 by HPLC (High Performance Liquid Chromatography) on reversed phase columns with the following methods: • ^[a] Log P value is determined by measurement of LC-UV, in an acidic range, with 0.1% formic acid in water and acetonitrile as eluent (linear gradient from 10% acetonitrile to 95% acetonitrile). • ^[b] […]
Please respond with reported LogP for every item in the list.

Ask: Fill in reported LogP for this entry: N#Cc1cncn1CC(O)c1cnc(Oc2ccc(C(F)(F)F)cc2)cc1Cl (stereo not shown) [I-127]
Reply: 2.96^[a]

Ask: Item CC(C)(C)C#Cc1ccc(C(O)(Cn2cncc2C#N)C2(F)CC2)c(F)c1 (stereo not shown) [I-646] : provide LogP
Reply: 3.57^[a]

Ask: Given CCCC(O)(Cn1cncc1C#N)c1ccc(Cl)cc1Cl (stereo not shown) [I-292] , respond with its LogP.
Reply: 3.14^[a]

Ask: Answer with the recorded LogP of OC(Cn1cncc1Cl)c1ccc(Oc2ccc(C(F)(F)F)cc2)cc1 (stereo not shown) [I-13] only.
Reply: 2.37^[a]

Ask: Query LogP for N#Cc1cncn1CC(O)(c1cc(F)cc(F)c1Cl)C1(F)CC1 (stereo not shown) [I-569]
Reply: 2.26^[a]

Ask: Please give measured LogP of the following entry: C[Si](C)(C)CC(O)(Cn1cncc1C#N)c1ccc(Cl)cc1 (stereo not shown) [I-224]
Reply: 3.35^[a]

Ask: In one line, give reported LogP of the entry N#Cc1cncn1CC(O)(CCCC(Cl)CCl)C1(F)CC1 (stereo not shown) [I-678] .
Reply: 2.54'^[a]

Ask: Please give measured LogP of the following entry: N#Cc1cncn1CC(O)c1ccccc1F (stereo not shown) [I-139]
Reply: 1.31^[a]

Ask: Using the record for CCCCCC(O)(Cn1cncc1C#N)c1ccccc1C(F)(F)F (stereo not shown) [I-346] , state its measured LogP.
Reply: 3.23^[a]

Ask: Answer with reported LogP of N#Cc1cncn1CC(O)(CC1CC1)c1ccc(F)c(Br)c1 (stereo not shown) [I-496]
Reply: 2.56^[a]

Ask: Query LogP for N#Cc1cncn1CC(O)(CC1CC1)c1c(F)cccc1F (stereo not shown) [I-513]
Reply: 2.18^[a]

Ask: Look up and state reported LogP for CC(C)C(O)(Cn1cncc1C#N)c1ccc(Cl)cc1 (stereo not shown) [I-288]
Reply: 2.31^[a]

Ask: Answer with the recorded LogP for the molecule listed here: CCCCCC(O)(Cn1cncc1C#N)c1ccc(Cl)cc1Cl (stereo not shown) [I-302]
Reply: 3.83^[a]

Ask: In one line, give reported LogP of the entry N#Cc1cncn1CC(O)(c1ccc(Cl)cc1)C1(Cl)CC1 (stereo not shown) [I-232] .
Reply: 2.49^[a]

Ask: Tell us which LogP value is on record for N#Cc1cncn1CC(O)(c1cc(F)cc(F)c1)C1(F)CC1 (stereo not shown) [I-473]
Reply: 2.14^[a]

Ask: Quote LogP reported for N#Cc1cncn1CC(O)(c1cc(F)c(F)c(Br)c1)C1(F)CC1 (stereo not shown) [I-471] please.
Reply: 2.58^[a]

Ask: Write down LogP measured for item N#Cc1cncn1CC(O)(c1ccc(F)cc1C(F)(F)F)C1CC1 (stereo not shown) [I-467]
Reply: 2.47^[a]

Ask: Give recorded LogP. CC(O)(Cn1cncc1Br)c1ccc(Oc2ccc(Cl)cc2)cc1 (stereo not shown) [I-165]
Reply: 2.30^[a]

Ask: Respond only with LogP recorded for OC(Cn1cncc1Br)c1ccc(Oc2ccc(Cl)cc2)cc1 (stereo not shown) [I-18]
Reply: 2.23^[a]

Ask: Report LogP for N#Cc1cncn1CC(O)(CCCC1CCCCC1)C1(F)CC1 (stereo not shown) [I-672]
Reply: 3.71^[a]

Ask: Given N#Cc1cncn1CC(O)(CCC1CCCC1)C1(Cl)CC1 (stereo not shown) [I-596] , respond with its LogP.
Reply: 3.37^[a]

Ask: Entry COC(Cn1cncc1C#N)c1ccc(Oc2ccc(Cl)cc2)cc1Br (stereo not shown) [I-61] needs its LogP filled in; supply it.
Reply: 4.08^[a]
